Reported MIC values for the following compounds.
# System: Enterococcus
# Method notes: Antibacterial activity against vancomycin-resistant Enterococcus
# Type: functional
Use µM as the unit, but write only the number.

Guide cases for MIC, answers given:
[[record]]
smiles_structure = "C/C(=N\\NC(=N)N)c1ccc(/C(C)=N/NC(=N)N)cc1"
system_under_test = "Enterococcus"
units_symbol = "µM"
value = 125

[[record]]
smiles_structure = "C/C(=N\\NC(=N)N)c1ccc(Cc2ccc(/C(C)=N/NC(=N)N)cc2)cc1.Cl.Cl"
system_under_test = "Enterococcus"
units_symbol = "µM"
value = 2

[[record]]
smiles_structure = "Cl.Cl.N=C(N)N/N=C/c1ccc(-c2cccc(/C=N/NC(=N)N)c2)cc1"
system_under_test = "Enterococcus"
units_symbol = "µM"
value = 3.9

[[record]]
smiles_structure = "NCC[C@H](O)C(=O)N[C@@H]1C[C@H](N)[C@@H](O[C@H]2O[C@H](CN)[C@@H](O)[C@H](O)[C@H]2O)[C@H](O)[C@H]1O[C@H]1O[C@H](CO)[C@@H](O)[C@H](N)[C@H]1O"
system_under_test = "Enterococcus"
units_symbol = "µM"
value = 125

[[record]]
smiles_structure = "N=C(N)N/N=C/c1ccc(-c2ccc(/C=N/Nc3ccc(Cl)cc3Cl)cc2)cc1"
system_under_test = "Enterococcus"
units_symbol = "µM"
value = 7.8


Incoming: Determine its reported MIC: `Cl.N=C(N)N/N=C/c1ccc(-c2ccc(/C=N/Nc3ccc(F)cc3F)cc2)cc1`
Outgoing: 3.9

Incoming: Determine its reported MIC: `Cl.Cl.N=C(N)N/N=C/c1ccc(-c2ccc(/C=N/NC(=N)N)cc2)cc1`
Outgoing: 2
